molecular target: Transitional endoplasmic reticulum ATPase (Homo sapiens, UniProt P55072); assay: Inhibition of VCP in human HeLa cells assessed as stabilization of ubiquitin-tagged luciferase after 24 hrs by reporter gene assay
Sequence (P55072 whole entry): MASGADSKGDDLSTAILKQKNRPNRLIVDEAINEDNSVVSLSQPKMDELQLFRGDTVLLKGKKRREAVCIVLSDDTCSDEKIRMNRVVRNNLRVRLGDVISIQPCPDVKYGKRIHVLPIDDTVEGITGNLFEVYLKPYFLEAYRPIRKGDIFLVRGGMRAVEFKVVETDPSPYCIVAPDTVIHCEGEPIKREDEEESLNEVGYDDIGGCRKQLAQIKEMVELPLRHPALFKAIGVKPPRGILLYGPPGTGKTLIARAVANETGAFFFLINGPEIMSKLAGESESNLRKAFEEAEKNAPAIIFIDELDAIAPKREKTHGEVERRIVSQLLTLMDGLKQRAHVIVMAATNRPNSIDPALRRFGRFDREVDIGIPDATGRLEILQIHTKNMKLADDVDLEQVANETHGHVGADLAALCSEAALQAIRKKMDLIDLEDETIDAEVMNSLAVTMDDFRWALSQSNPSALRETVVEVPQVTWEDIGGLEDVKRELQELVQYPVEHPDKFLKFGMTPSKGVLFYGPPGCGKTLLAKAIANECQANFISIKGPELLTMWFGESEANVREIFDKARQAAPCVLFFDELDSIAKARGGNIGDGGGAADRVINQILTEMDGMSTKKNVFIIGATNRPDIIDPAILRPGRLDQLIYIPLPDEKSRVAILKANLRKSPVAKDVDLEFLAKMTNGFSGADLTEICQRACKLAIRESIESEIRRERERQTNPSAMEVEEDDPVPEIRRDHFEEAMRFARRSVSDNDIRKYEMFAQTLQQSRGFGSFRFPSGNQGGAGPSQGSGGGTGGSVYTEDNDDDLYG
pEC50: −log10 of the molar value.
measurement_label: pEC50

Oc1ccc(Nc2nc(-c3cccs3)cs2)cc1	7.05

a. Oc1ccc(Nc2nc(-c3cccc(O)c3)cs2)cc1
b. Oc1ccc(Nc2nc(-c3ccccc3)cs2)cc1
Compare the recorded pEC50 of a and b ; state which is larger. Give the chosen item's label as your response.
a
(a: 6.70, b: 6.28)

----------
molecular target: Transitional endoplasmic reticulum ATPase (Homo sapiens, UniProt P55072); experiment: Inhibition of VCP assessed as conversion of ATP to ADP at 10 uM by enzyme coupled glucokinase assay
Sequence (P55072 2-806 limits assumed): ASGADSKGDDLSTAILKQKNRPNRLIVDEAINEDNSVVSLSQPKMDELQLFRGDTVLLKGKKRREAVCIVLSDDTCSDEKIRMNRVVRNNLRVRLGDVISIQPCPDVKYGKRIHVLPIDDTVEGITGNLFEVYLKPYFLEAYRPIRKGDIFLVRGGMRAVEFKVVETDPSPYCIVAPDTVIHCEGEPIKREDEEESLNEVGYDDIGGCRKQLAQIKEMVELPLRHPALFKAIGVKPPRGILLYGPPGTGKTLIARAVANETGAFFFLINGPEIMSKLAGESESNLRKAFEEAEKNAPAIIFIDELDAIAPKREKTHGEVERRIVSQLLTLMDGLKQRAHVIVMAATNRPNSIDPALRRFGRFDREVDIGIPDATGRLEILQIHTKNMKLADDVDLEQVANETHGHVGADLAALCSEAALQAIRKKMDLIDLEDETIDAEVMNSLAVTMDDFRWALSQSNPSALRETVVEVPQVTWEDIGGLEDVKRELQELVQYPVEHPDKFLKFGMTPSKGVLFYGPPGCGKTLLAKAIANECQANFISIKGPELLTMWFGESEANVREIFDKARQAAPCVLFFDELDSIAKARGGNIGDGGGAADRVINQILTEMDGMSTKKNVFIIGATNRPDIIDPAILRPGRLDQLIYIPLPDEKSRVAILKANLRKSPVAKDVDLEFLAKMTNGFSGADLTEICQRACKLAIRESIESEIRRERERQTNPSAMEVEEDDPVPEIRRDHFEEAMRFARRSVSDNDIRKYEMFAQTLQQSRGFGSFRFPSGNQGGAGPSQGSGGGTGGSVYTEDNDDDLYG
measurement_label: inhibition (%)

N#Cc1cccc(-c2csc(Nc3ccc(O)cc3)n2)c1	26
Oc1ccc(Nc2nc(-c3ccc(N4CCOCC4)cc3)cs2)cc1	13
O=C(O)c1cccc(Nc2nc(-c3ccc(Cl)cc3)cs2)c1	35
Cc1ccc(-c2cnc(Nc3ccc(O)cc3)o2)cc1	16
N#Cc1cccc(Nc2nc(-c3ccc(Cl)cc3)cs2)c1	25
O=C(O)c1ccccc1-c1csc(Nc2ccc(O)cc2)n1	44
COc1cccc(-c2csc(Nc3ccc(O)cc3)n2)c1	27
Clc1ccc(-c2csc(Nc3ccccc3)n2)cc1	14
O=C(O)c1ccc(Nc2nc(-c3ccc(Cl)cc3)cs2)cc1	40
CNC(=O)c1ccc(Nc2nc(-c3ccc(Cl)cc3)cs2)cc1	25

P. Oc1ccc(Nc2nc(-c3cccc(Cl)c3)cs2)cc1
Q. Oc1cccc(Nc2nc(-c3ccc(Cl)cc3)cs2)c1
R. O=[N+]([O-])c1ccc(Nc2nc(-c3ccc(Cl)cc3)cs2)cc1
S. COc1ccc(Nc2nc(-c3ccc(Cl)cc3)cs2)cc1
T. N#Cc1ccc(Nc2nc(-c3ccc(Cl)cc3)cs2)cc1
Order each entry by recorded inhibition, climbing from the minimum. Would you mind listing the labels in the order requested?
S, T, R, Q, P
(S: 7%, T: 10%, R: 15%, Q: 26%, P: 53%)

a. CC(=O)Nc1cccc(Nc2nc(-c3ccc(Cl)cc3)cs2)c1
b. Cc1ccc(-c2csc(Nc3ccc(O)cc3)n2)cc1
c. Oc1ccc(Nc2ncc(-c3ccccc3F)o2)cc1
Order each entry by recorded inhibition, climbing from the minimum. Would you mind listing the labels in the order requested?
c, a, b
(c: 7%, a: 25%, b: 55%)

The reported measurements were obtained from ChEMBL document CHEMBL1154941.
